Each entry below carries its reported pKd.
biological target: T1, recombinant human IL-6 (human, UniProt P05231 30-212); assay: SPR Biacore, supernatant Ab on Protein A chip, IL-6 analyte, 25 C
T1 construct: Bought protein
T1 sequence (P05231 30-212 limits assumed): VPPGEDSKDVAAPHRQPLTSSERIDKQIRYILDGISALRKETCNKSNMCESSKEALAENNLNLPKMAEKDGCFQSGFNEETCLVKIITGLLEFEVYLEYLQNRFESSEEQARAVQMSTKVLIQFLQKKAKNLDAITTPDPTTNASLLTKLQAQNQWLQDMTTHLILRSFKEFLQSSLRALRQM
pKd here: minus log base 10 of the concentration, concentration in moles per litre.

Some solved entries appear below for comparison.
* anti-IL-6 antibody, light chain Q89A (heavy chain WT) (antibody, V domains shown, See note of m2; also called WT / Q89A) VH: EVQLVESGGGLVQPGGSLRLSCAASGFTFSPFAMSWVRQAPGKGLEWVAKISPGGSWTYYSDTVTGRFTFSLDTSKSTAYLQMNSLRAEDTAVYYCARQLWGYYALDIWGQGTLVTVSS VL: DIQLTQSPSSLSASVGDRVTITCSASISVSYMYWYQQKPGKAPKLLIYDMSNLASGVPSRFSGSGSGTDFTLTISSLQPEDFATYYCMAWSGYPYTFGQGTKVEIK | 9.38
* anti-IL-6 antibody, light chain S30G (heavy chain WT) (antibody, V domains shown, See note of m2; also called WT / S30G) VH: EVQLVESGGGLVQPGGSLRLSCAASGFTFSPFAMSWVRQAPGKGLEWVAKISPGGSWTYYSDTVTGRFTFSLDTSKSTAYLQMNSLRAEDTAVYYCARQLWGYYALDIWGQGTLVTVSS VL: DIQLTQSPSSLSASVGDRVTITCSASISVGYMYWYQQKPGKAPKLLIYDMSNLASGVPSRFSGSGSGTDFTLTISSLQPEDFATYYCMQWSGYPYTFGQGTKVEIK | 9.50
* anti-IL-6 antibody, light chain I47V (heavy chain WT) (antibody, V domains shown, See note of m2; also called WT / 147V) VH: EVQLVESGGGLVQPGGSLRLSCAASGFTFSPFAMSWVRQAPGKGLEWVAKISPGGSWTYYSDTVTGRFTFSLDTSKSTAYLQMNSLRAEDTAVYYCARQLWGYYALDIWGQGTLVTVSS VL: DIQLTQSPSSLSASVGDRVTITCSASISVSYMYWYQQKPGKAPKLLVYDMSNLASGVPSRFSGSGSGTDFTLTISSLQPEDFATYYCMQWSGYPYTFGQGTKVEIK | 9.38

Q. What pKd value was documented for this binder, anti-IL-6 antibody, light chain T96V (heavy chain WT) (antibody, V domains shown, See note of m2; also called WT / T96V) VH: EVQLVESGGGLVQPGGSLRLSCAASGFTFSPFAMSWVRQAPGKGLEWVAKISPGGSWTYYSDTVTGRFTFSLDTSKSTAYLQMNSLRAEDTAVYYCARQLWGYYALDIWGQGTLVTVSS VL: DIQLTQSPSSLSASVGDRVTITCSASISVSYMYWYQQKPGKAPKLLIYDMSNLASGVPSRFSGSGSGTDFTLTISSLQPEDFATYYCMQWSGYPYVFGQGTKVEIK ?
A. 9.37

Q. What pKd value was documented for this binder, anti-IL-6 antibody, light chain A54G (heavy chain WT) (antibody, V domains shown, See note of m2; also called WT / A54G) VH: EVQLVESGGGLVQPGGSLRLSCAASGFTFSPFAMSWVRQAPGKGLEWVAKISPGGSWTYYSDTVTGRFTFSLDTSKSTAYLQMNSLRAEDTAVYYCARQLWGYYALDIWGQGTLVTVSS VL: DIQLTQSPSSLSASVGDRVTITCSASISVSYMYWYQQKPGKAPKLLIYDMSNLGSGVPSRFSGSGSGTDFTLTISSLQPEDFATYYCMQWSGYPYTFGQGTKVEIK ?
A. 9.38
